From: patent US20210246200A1

Target: T1, Proleukin® (aldesleukin) (human, UniProt P60568 21-153, limits assumed)
T1 construct: Variant of human wt IL-2 with C145S (C125S on mature IL-2); also called IL-2 (Proleukin®); human IL-2 (Proleukin)
T1 sequence (P60568 other isoform, or with tags, fused parts or gaps limits assumed): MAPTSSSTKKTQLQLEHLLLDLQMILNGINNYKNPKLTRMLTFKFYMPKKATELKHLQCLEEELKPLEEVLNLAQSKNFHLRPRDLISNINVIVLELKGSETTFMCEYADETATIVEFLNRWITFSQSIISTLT
Assay: ELISA, coated Proleukin, mean of 3 experiments;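 also: binding of anti-human IL-2 antibodies, tested as an 11-point dilution series for 2 hours, to plate-bound IL-2, detected via streptavidin-HRP with absorbance read at 450 nm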
metric: log10(EC50) (log10 of the value in pM)
The common logarithm of EC50 in pM is what is listed.

Guide cases for log10(EC50), answers given:
1. Antibody No: 20 (antibody, human IgG1, kappa, N297A, V domains shown, VK M33L + A50S; also called 108928) VH: EVQLVQSGAEVKKPGESLKISCKGSGYAFTNYLIEWVRQMPGKGLEWMGVINPGSGGTYYNEKFKGQVTISADKSISTAYLQWSSLKASDTAMYYCARWRGEGYYAYYDVWGQGTTVTVSS VL: AIRLTQSPSSFSASTGDRVTITCKASQSVDYQGDSYLNWYQQKPGKAPKLLIYSASNLESGVPSRFSGSGSGTDFTLTISSLQSEDFATYYCQQSNEDPYTFGGGTKVEIKR : 2.85
2. 104346 (antibody, V domains shown, VH3s/VK2) VH: QVQLVESGGGVVQPGRSLRLSCAASGYTFSSYLIEWVRQAPGKGLEWVAVINPGSGGTNYADSVKGRFTISADKSKNTAYLQMNSLRAEDTAVYYCARWRGDGYYAYFDVWGQGTTVTVSS VL: DIVLTQSPLSLPVTLGQPASISCKASQSVDYDGDSYMNWYQQRPGQSPRLLIYAASNLESGVPDRFSGSGSGTDFTLKISRVEAEDVGVYYCQQSNEDPYTFGGGTKVEIK : 3.23
3. 104348 (antibody, human IgG1, kappa, N297A, V domains shown, VH5/VK1, human IgG1 N297A) VH: EVQLVQSGAEVKKPGESLKISCKGSGYAFTNYLIEWVRQMPGKGLEWMGVINPGSGGTNYNEKFKGQVTISADKSISTAYLQWSSLKASDTAMYYCARWRGDGYYAYFDVWGQGTTVTVSS VL: AIRLTQSPSSFSASTGDRVTITCKASQSVDYDGDSYMNWYQQKPGKAPKLLIYAASNLESGVPSRFSGSGSGTDFTLTISSLQSEDFATYYCQQSNEDPYTFGGGTKVEIKR : 2.48
4. 104348_VH5D98E_VK1D28Q (antibody, human IgG1, kappa, N297A, V domains shown, also called Antibody No: 1; parental antibody) VH: EVQLVQSGAEVKKPGESLKISCKGSGYAFTNYLIEWVRQMPGKGLEWMGVINPGSGGTNYNEKFKGQVTISADKSISTAYLQWSSLKASDTAMYYCARWRGEGYYAYFDVWGQGTTVTVSS VL: AIRLTQSPSSFSASTGDRVTITCKASQSVDYQGDSYMNWYQQKPGKAPKLLIYAASNLESGVPSRFSGSGSGTDFTLTISSLQSEDFATYYCQQSNEDPYTFGGGTKVEIKR : 3.07
5. 104343_VH1_VK2D28Q (antibody, V domains shown, Human IgG1 Fc domain with the N297A point mutation) VH: QVQLVQSGAEVKKPGSSVKVSCKASGYAFTNYLIEWVRQAPGQGLEWMGVINPGSGGTNYNEKFKGRVTITADKSTSTAYMELSSLRSEDTAVYYCARWRGDGYYAYFDVWGQGTTVTVSS VL: DIVLTQSPLSLPVTLGQPASISCKASQSVDYQGDSYMNWYQQRPGQSPRLLIYAASNLESGVPDRFSGSGSGTDFTLKISRVEAEDVGVYYCQQSNEDPYTFGGGTKVEIK : 2.77
6. 104348_VH5_VK1D28Q (antibody, V domains shown, Human IgG1 Fc domain with the N297A point mutation) VH: EVQLVQSGAEVKKPGESLKISCKGSGYAFTNYLIEWVRQMPGKGLEWMGVINPGSGGTNYNEKFKGQVTISADKSISTAYLQWSSLKASDTAMYYCARWRGDGYYAYFDVWGQGTTVTVSS VL: AIRLTQSPSSFSASTGDRVTITCKASQSVDYQGDSYMNWYQQKPGKAPKLLIYAASNLESGVPSRFSGSGSGTDFTLTISSLQSEDFATYYCQQSNEDPYTFGGGTKVEIK : 2.99
7. Antibody No: 15 (antibody, human IgG1, kappa, N297A, V domains shown, VH N58Y; VK M33L + A50S; also called 108926) VH: EVQLVQSGAEVKKPGESLKISCKGSGYAFTNYLIEWVRQMPGKGLEWMGVINPGSGGTYYNEKFKGQVTISADKSISTAYLQWSSLKASDTAMYYCARWRGEGYYAYFDVWGQGTTVTVSS VL: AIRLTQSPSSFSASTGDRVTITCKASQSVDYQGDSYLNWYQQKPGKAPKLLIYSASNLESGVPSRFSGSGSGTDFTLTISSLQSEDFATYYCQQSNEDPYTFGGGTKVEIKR : 1.70
8. 104343_VH1D98E_VK2 (antibody, V domains shown, Human IgG1 Fc domain with the N297A point mutation) VH: QVQLVQSGAEVKKPGSSVKVSCKASGYAFTNYLIEWVRQAPGQGLEWMGVINPGSGGTNYNEKFKGRVTITADKSTSTAYMELSSLRSEDTAVYYCARWRGEGYYAYFDVWGQGTTVTVSS VL: DIVLTQSPLSLPVTLGQPASISCKASQSVDYDGDSYMNWYQQRPGQSPRLLIYAASNLESGVPDRFSGSGSGTDFTLKISRVEAEDVGVYYCQQSNEDPYTFGGGTKVEIK : 2.76

Antibody No: 12 (antibody, human IgG1, kappa, N297A, V domains shown, VH N58Y; VK M33L; also called 108924) VH: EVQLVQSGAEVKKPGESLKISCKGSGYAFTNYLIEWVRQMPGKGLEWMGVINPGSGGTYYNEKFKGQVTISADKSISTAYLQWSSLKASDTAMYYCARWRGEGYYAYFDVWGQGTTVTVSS VL: AIRLTQSPSSFSASTGDRVTITCKASQSVDYQGDSYLNWYQQKPGKAPKLLIYAASNLESGVPSRFSGSGSGTDFTLTISSLQSEDFATYYCQQSNEDPYTFGGGTKVEIKR yielded log10(EC50) of 2.04

// recorded log10(EC50) for 108930 (antibody, human IgG1, kappa, N297A, V domains shown) VH: EVQLVQSGAEVKKPGESLKISCKGSGYAFSNYLIEWVRQMPGKGLEWMGVINPGSGGTYYNEKFKGQVTISADKSISTAYLQWSSLKASDTAMYYCARWRGEGYYAYFDVWGQGTTVTVSS VL: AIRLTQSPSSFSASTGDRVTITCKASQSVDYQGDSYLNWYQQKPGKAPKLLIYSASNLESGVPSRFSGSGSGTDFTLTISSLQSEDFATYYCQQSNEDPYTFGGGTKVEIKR : 1.78
